Values compiled from patent US20200199204A1.

Target: HIV-1 Env of CAP45.G3 (HIV-1)
Test: cell-based or functional assay
Readings of neutralization IC50 for the listed binders
ENDPOINT_NAME: neutralization IC50

1. CAP256-VRC26.10 (antibody, V domains shown) VH: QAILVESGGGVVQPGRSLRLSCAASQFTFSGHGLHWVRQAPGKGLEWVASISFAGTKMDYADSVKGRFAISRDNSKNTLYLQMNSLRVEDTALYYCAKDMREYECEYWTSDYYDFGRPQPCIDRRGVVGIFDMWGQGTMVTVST VL: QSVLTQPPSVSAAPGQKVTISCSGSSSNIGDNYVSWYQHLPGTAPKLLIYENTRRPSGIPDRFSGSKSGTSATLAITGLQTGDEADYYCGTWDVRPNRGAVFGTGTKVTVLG ... > 50 µg/mL
2. CAP256-VRC26.12 (antibody, V domains shown) VH: EVQLVQSGGGVVQPGRSLRLSCAAPYFEFGRYGFHWVRQAPGKGLEWVASISFAGRDYYHSPSVWGRFTISRDNSKNTLYLQMNSLRIEDTALYFCARDLRESECEEWESDYYDFGKKGPCVKPRGVAGGLDLWGQGTMVIVSS VL: QSVLTQPPSVSTAPGQTVTVSCSGGTSNTGNNFVSWYQHLPGTAPKLLIYENNKRPLGVPDRFSGAKSGTSATLAITGLQTGDEGDYYCATWSGSLNIGTGTKVSVLG ... > 50 µg/mL
